Assay system: human GPR52 (Homo sapiens)
Construct: expressed in transfected cells; host or cells: CHO (dhfr-) cells
Procedure summary: Increased intracellular cAMP levels in human GPR52 expression CHO cells (AlphaScreen cAMP assay)
Format: cell-based
Stated conditions: 1 μM test compound, 30 min at 37° C., human GPR52 expression CHO (dhfr−) cells; intracellular cAMP level, 100% = 1 μM 3-(6-(2-(3,4-dimethoxyphenyl)ethoxy)pyridin-2-yl)-N-(2-pyrrolidin-1-ylethyl)benzamide, 0% = DMSO
Observed property: GPR52 agonist activity (%)
The response must be a number in % with no trailing unit.

IN: Give the measured GPR52 agonist activity (%) of COc1cccc(CCOc2cccc(-c3cccc(C(=O)Nc4ccc(F)nc4)c3)n2)c1 [Working Example 75] .
OUT: 60

IN: Give the measured GPR52 agonist activity (%) of O=C(NCCN1CCCC1)c1cccc(-c2ccnc(NCCc3cccc(C(F)(F)F)c3)n2)c1 [Working Example 146] .
OUT: 135

IN: Give the measured GPR52 agonist activity (%) of COc1cccc(CCOc2cccc(-c3cccc(C(=O)NC4CCOCC4)c3)n2)c1 [Working Example 67] .
OUT: 48

IN: Give the measured GPR52 agonist activity (%) of C[C@H](CC#N)NC(=O)c1cccc(-c2cccc(Oc3cc(Cl)cc(Cl)c3)n2)c1 [Working Example 94] .
OUT: 58

IN: Give the measured GPR52 agonist activity (%) of O=C(Nc1nccs1)c1cccc(-c2cccc(OCCc3cccc(F)c3)n2)c1 [Working Example 61] .
OUT: 43

IN: Give the measured GPR52 agonist activity (%) of COc1ccc(CCOc2cccc(-c3cccc(C(=O)NC4CCOCC4)c3)n2)cc1OC [Working Example 41] .
OUT: 56

IN: Give the measured GPR52 agonist activity (%) of O=C(NCCN1CCCC1)c1cccc(-c2ccnc(NCCc3ccc(F)c(Cl)c3)n2)c1 [Working Example 164] .
OUT: 107

IN: Give the measured GPR52 agonist activity (%) of COc1ccc(CCOc2cccc(-c3cccc(C(=O)NCCN4CCCC4)c3)n2)cc1OC [Working Example 39] .
OUT: 106

###

Please provide measured GPR52 agonist activity (%) for the entries that follow.
Assay system: human GPR52 (Homo sapiens, UniProt Q9Y2T5)
Construct: expressed in transfected cells; host or cells: CHO (dhfr-) cells
Sequence (Q9Y2T5 whole entry): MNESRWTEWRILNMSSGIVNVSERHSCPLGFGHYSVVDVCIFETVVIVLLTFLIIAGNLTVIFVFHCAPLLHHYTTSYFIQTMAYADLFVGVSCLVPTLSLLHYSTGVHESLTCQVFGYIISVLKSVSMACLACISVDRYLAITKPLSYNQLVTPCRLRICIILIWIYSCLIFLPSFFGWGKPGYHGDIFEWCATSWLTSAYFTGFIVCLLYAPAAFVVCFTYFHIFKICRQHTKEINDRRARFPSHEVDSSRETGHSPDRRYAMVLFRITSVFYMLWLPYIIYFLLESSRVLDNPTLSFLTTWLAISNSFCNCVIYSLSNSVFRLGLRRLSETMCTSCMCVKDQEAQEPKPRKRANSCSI
Procedure summary: Increased intracellular cAMP levels in human GPR52 expression CHO cells (AlphaScreen cAMP assay)
Type: cell-based
Stated conditions: 1 μM test compound, 30 min at 37° C., human GPR52 expression CHO (dhfr−) cells; intracellular cAMP level, 100% = 1 μM 3-(6-(2-(3,4-dimethoxyphenyl)ethoxy)pyridin-2-yl)-N-(2-pyrrolidin-1-ylethyl)benzamide, 0% = DMSO
Counter-ions that a name gives are not always drawn.
The response must be a number in % with no trailing unit.

IN: Query the reported GPR52 agonist activity (%) for human GPR52 (Homo sapiens, UniProt Q9Y2T5); item: O=C(NCCN1CCCC1)c1cccc(-c2ccnc(NCCc3cccc(F)c3)n2)c1
OUT: 72

IN: Query the reported GPR52 agonist activity (%) for human GPR52 (Homo sapiens, UniProt Q9Y2T5); item: COc1ccc(CCNc2nccc(-c3cccc(C(=O)N(C)CCCN(C)C)c3)n2)cc1OC [Working Example 37, hydrochloride]
OUT: 92

IN: Query the reported GPR52 agonist activity (%) for human GPR52 (Homo sapiens, UniProt Q9Y2T5); item: O=C(NCCN1CCCC1)c1cccc(-c2ccnc(NCCc3cccs3)n2)c1
OUT: 64

IN: Query the reported GPR52 agonist activity (%) for human GPR52 (Homo sapiens, UniProt Q9Y2T5); item: COc1ccc(CCNc2nccc(-c3cccc(NC(=O)CC4CCCN4)c3)n2)cc1OC (stereo not drawn) [Working Example 25, hydrochloride]
OUT: 71

IN: Query the reported GPR52 agonist activity (%) for human GPR52 (Homo sapiens, UniProt Q9Y2T5); item: COc1ccc(CCOc2cccc(-c3cccc(C(=O)NCCN4CCCC4)c3)c2)cc1OC
OUT: 87

IN: Query the reported GPR52 agonist activity (%) for human GPR52 (Homo sapiens, UniProt Q9Y2T5); item: COc1ccc(CCOc2ccnc(-c3cccc(C(=O)NCCN4CCCC4)c3)n2)cc1OC
OUT: 85

IN: Query the reported GPR52 agonist activity (%) for human GPR52 (Homo sapiens, UniProt Q9Y2T5); item: O=C(NCCCO)c1cccc(-c2cccc(Oc3cc(Cl)cc(Cl)c3)n2)c1
OUT: 62

IN: Query the reported GPR52 agonist activity (%) for human GPR52 (Homo sapiens, UniProt Q9Y2T5); item: O=C(NCCN1CCCC1)c1cccc(-c2cccc(Oc3cccc(Cl)c3Cl)n2)c1
OUT: 97

IN: Query the reported GPR52 agonist activity (%) for human GPR52 (Homo sapiens, UniProt Q9Y2T5); item: COc1ccc(CCNc2nccc(-c3cccc(C(=O)NCCN4CCCC4)c3)n2)cc1OC
OUT: 113

IN: Query the reported GPR52 agonist activity (%) for human GPR52 (Homo sapiens, UniProt Q9Y2T5); item: COc1ccc(CCNc2nccc(-c3cccc(NC(=O)CCCN4CCCCC4)c3)n2)cc1OC
OUT: 98

IN: Query the reported GPR52 agonist activity (%) for human GPR52 (Homo sapiens, UniProt Q9Y2T5); item: N#CCCNC(=O)c1cccc(-c2cccc(Oc3cccc(Cl)c3)n2)c1
OUT: 55

IN: Query the reported GPR52 agonist activity (%) for human GPR52 (Homo sapiens, UniProt Q9Y2T5); item: N#CCCNC(=O)c1cccc(-c2cccc(Oc3cc(Cl)cc(Cl)c3)n2)c1
OUT: 51

IN: Query the reported GPR52 agonist activity (%) for human GPR52 (Homo sapiens, UniProt Q9Y2T5); item: COc1ccc(CCOc2cccc(-c3cccc(C(=O)NCCCn4ccnc4)c3)n2)cc1OC
OUT: 97

IN: Query the reported GPR52 agonist activity (%) for human GPR52 (Homo sapiens, UniProt Q9Y2T5); item: O=C(NCCO)c1cccc(-c2cccc(OCCc3cccc(C(F)(F)F)c3)n2)c1
OUT: 64

IN: Query the reported GPR52 agonist activity (%) for human GPR52 (Homo sapiens, UniProt Q9Y2T5); item: C[S+]([O-])CCNC(=O)c1cccc(-c2cccc(Oc3cc(Cl)cc(Cl)c3)n2)c1 (stereo not drawn)
OUT: 66

IN: Query the reported GPR52 agonist activity (%) for human GPR52 (Homo sapiens, UniProt Q9Y2T5); item: O=C(NCCN1CCCC1)c1cccc(-c2cccc(Oc3ccc(Cl)c(Cl)c3)n2)c1
OUT: 64

IN: Query the reported GPR52 agonist activity (%) for human GPR52 (Homo sapiens, UniProt Q9Y2T5); item: COc1ccc(CCOc2nccc(-c3cccc(C(=O)NCCN4CCCC4)c3)n2)cc1OC
OUT: 99

IN: Query the reported GPR52 agonist activity (%) for human GPR52 (Homo sapiens, UniProt Q9Y2T5); item: COc1ccc(CCOc2cc(-c3cccc(C(=O)NCCN4CCCC4)c3)ccn2)cc1OC
OUT: 71

IN: Query the reported GPR52 agonist activity (%) for human GPR52 (Homo sapiens, UniProt Q9Y2T5); item: COc1ccc(CCNc2nccc(-c3cccc(NC(=O)C4CCNCC4)c3)n2)cc1OC [Working Example 22, hydrochloride]
OUT: 80

IN: Query the reported GPR52 agonist activity (%) for human GPR52 (Homo sapiens, UniProt Q9Y2T5); item: N#CCCNC(=O)c1cc(-c2cccc(Oc3ccc(Cl)cc3Cl)n2)ccc1F
OUT: 77

IN: Query the reported GPR52 agonist activity (%) for human GPR52 (Homo sapiens, UniProt Q9Y2T5); item: COc1ccc(CCNc2nccc(-n3ccc4cc(C(=O)NCCN(C)C)ccc43)n2)cc1OC
OUT: 89

###

Assay system: human GPR52 (Homo sapiens, UniProt Q9Y2T5)
Construct: expressed in transfected cells; host or cells: CHO (dhfr-) cells
Procedure summary: Increased intracellular cAMP levels in human GPR52 expression CHO cells (AlphaScreen cAMP assay)
Assay type: cell-based
Stated conditions: 1 μM test compound, 30 min at 37° C., human GPR52 expression CHO (dhfr−) cells; intracellular cAMP level, 100% = 1 μM 3-(6-(2-(3,4-dimethoxyphenyl)ethoxy)pyridin-2-yl)-N-(2-pyrrolidin-1-ylethyl)benzamide, 0% = DMSO
Observed property: GPR52 agonist activity (%)
The response must be a number in % with no trailing unit.

IN: Give the measured GPR52 agonist activity (%) of O=C(NCCO)c1cccc(-c2cccc(Sc3ccc(Cl)cc3Cl)n2)c1 [Working Example 101] .
OUT: 53

IN: Give the measured GPR52 agonist activity (%) of COc1ccc(CCOc2cccc(-c3cccc(NC(=O)[C@@H]4CSC(=O)N4)c3)n2)cc1OC [Working Example 245] .
OUT: 58

IN: Give the measured GPR52 agonist activity (%) of Cc1cccc(CCOc2cccc(-c3cccc(C(=O)NCCO)c3)n2)c1 [Working Example 59] .
OUT: 84

IN: Give the measured GPR52 agonist activity (%) of COc1cccc(CCOc2cccc(-c3cccc(C(=O)Nc4ccccn4)c3)n2)c1 [Working Example 76] .
OUT: 52

Provenance of the data: patent US20110009421A1
